Target: TAS2R16 (Homo sapiens, UniProt Q9NYV7)
Construct: The full length gene of human TAS2R44 was amplified by polymerase chain reaction (PCR) using gene-specific primers that span the entire coding region; RSS tag (first 45 amino acids of rat somatostatin receptor subtype 3) (N)
Sequence (Q9NYV7 1-291): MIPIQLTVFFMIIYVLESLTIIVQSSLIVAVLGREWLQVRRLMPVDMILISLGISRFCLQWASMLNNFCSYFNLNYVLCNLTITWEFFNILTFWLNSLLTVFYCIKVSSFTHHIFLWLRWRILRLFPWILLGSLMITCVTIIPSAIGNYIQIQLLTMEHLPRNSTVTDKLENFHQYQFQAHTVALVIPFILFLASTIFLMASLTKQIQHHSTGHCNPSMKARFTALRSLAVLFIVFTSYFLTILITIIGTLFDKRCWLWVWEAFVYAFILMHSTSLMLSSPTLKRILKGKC
Experiment: Fluo-4 calcium assay, cells expressing TAS2R16 (control of antagonist specificity)
Conditions: agonist P-β-G alone; TAS2R16
QUANTITY KIND: pEC50
For clarity, pEC50 is expressed as the negative log10 of concentration in mol/L.

Asked: Dear colleague, I am looking for the recorded pEC50 of the following compound: OC[C@H]1O[C@@H](Oc2ccccc2)[C@H](O)[C@@H](O)[C@@H]1O [P-β-G, phenyl-β-glucopyranoside]
Given back: 3.68
